Task for the reader: assign each of the following molecules its reported Percent Control.
- System: PIK3CA(E545A)
- EXPERIMENTAL_CONDITIONS: Compound Concentration (nM):1000;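 further: KINOMEscan scanMAX binding as percent activity remaining versus control; lower means stronger binding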
Kindly answer with a numeric value in %, unit omitted.

Q: State the recorded Percent Control for this entry: COc1cccc(-c2c[nH]c3c(N/N=C/c4ccncc4)ncnc23)c1 [GW814408X]
Result: 100

Q: And for COc1cc2ncn(-c3cc(O[C@H](C)c4ccccc4Cl)c(C(N)=O)s3)c2cc1OC [GSK237701A] ?
Result: 62

Q: And the next one, COc1ccccc1-c1cc(/C=C2\C(=O)Nc3ncc(Br)cc32)cc(Br)c1O [GW442130X] ?
Result: 76

Q: Same lookup for COc1cc(C=NNc2ncnc3c2cnn3-c2ccccc2)ccc1O [GW513184X] , please.
Result: 76

Q: Note, next up: COc1cc(N2CCN(C(C)C)CC2)ccc1Nc1nc(Nc2ccc(F)cc2C(=O)NC[C@@H](O)CO)c2cc[nH]c2n1 [GSK1392956A]
Result: 100

Q: Please do the same for O=C1Nc2ccc(C(=O)c3ccco3)cc2C1=Cc1cc(Cl)c(O)c(Cl)c1 [GW406108X] as well.
Result: 83

Q: Again, but for NS(=O)(=O)c1ccc(N/N=C2\C(=O)Nc3ccc(C(=O)NCc4ccncc4)cc32)cc1 [GW300657X]
Result: 100

Q: // repeat for CC(C)COC(=O)c1ccc2c(c1)/C(=C/Nc1ccc(S(N)(=O)=O)cc1)C(=O)N2 [GW416981X] and report
Result: 100

Q: # iterate: CN(C)CCNC(=O)Nc1ccc(N(C)c2ccnc(Nc3ccc(CS(C)(=O)=O)cc3)n2)cc1.Cl [GW830900A]
Result: 100

Q: Also, C[C@@H](Oc1cc(-n2cnc3ccc(OC4CCN(C)CC4)cc32)sc1C(N)=O)c1ccccc1Cl [GSK579289A] please.
Result: 67

Q: Also COc1ccc2[nH]c3c4[nH]c5ccc(OC)cc5c4c4c(c3c2c1)C(=O)NC4=O [GW296115X] , if possible.
Result: 100

Q: Quick one: Cl.O=C(Nc1ccc(Oc2ccc3[nH]c(NC(=O)c4ccccc4)nc3c2)cc1)Nc1cc(C(F)(F)F)ccc1F [GW709042A]
Result: 95

Q: Quick one: Nc1ncnc2occ(-c3ccc(NC(=O)Nc4cc(C(F)(F)F)ccc4F)cc3)c12 [GW770249X]
Result: 100

Q: Again, but for "COc1ccc2cc(-c3c(-c4ccncc4)nc(-c4ccc(S(C)(=O)=O)cc4C)n3C)ccc2c1"
Result: 84

Q: Consider next the molecule NS(=O)(=O)c1ccc(N/N=C2\C(=O)Nc3ccc(Cl)cc32)cc1 [GW280670X] in the same way.
Result: 100

Q: Now give it for COc1cc2ncnc(Nc3ccc4c(cnn4Cc4ccccc4)c3)c2cc1OC.Cl [GW282449A] too.
Result: 100

Q: Repeat for the following molecule: COc1ccc(COc2ccc(Cc3cnc(N)nc3N)cc2OC)cc1 [GW632580X]
Result: 100

====

Exercise: for every item that follows, state its recorded Percent Control.
- Test system: ULK2
- EXPERIMENTAL_CONDITIONS: Compound Concentration (nM):1000
Could you give me the number in %? Just the number is fine.

Q: Dear colleague, I am looking for the recorded Percent Control of the following molecule: COC(=O)Nc1nc2ccc(Oc3ccc(NC(=O)Nc4cc(C(F)(F)F)ccc4F)cc3)cc2s1.Cl [GW693917A]
Result: 84

Q: Then what about the molecule COc1ccc2c(-c3ccnc(Nc4cccc(OC(F)(F)F)c4)n3)cnn2n1 [GW810372X] ?
Result: 100

Q: Cool, now COc1cccc(-c2c[nH]c3c(N/N=C/c4ccncc4)ncnc23)c1 [GW814408X]
Result: 91

Q: Then this molecule: Cl.O=S1CCN(Cc2ccc(-c3ccc4ncnc(Nc5ccc(OCc6ccccc6)c(F)c5)c4c3)o2)CC1 [GW576924A]
Result: 100

====

- Test system: MAK
- EXPERIMENTAL_CONDITIONS: Compound Concentration (nM):1000
VALUE_KIND: Percent Control (%)
All answers are understood in %, so give the number only.

Q: State the recorded Percent Control for this entry: "O=C(Nc1n[nH]c2nc(-c3ccc(O)cc3)c(Br)cc12)C1CC1"
Result: 39

Q: Another compound: CCS(=O)(=O)c1ccc(OC)c(Nc2ncc(-c3cccc(F)c3)o2)c1 [GW621970X]
Result: 100

Q: Follow-up entry: Cc1cc(O)cc(C)c1/C=C/c1cncc(C(N)=O)c1 [GW435821X]
Result: 100

Q: Field entry: Cl.c1ccc(Cc2nc3ccc(Nc4ncnc5ccccc45)cc3[nH]2)cc1 [GR269666A]
Result: 100

Q: Cool, now COc1ccc2c(-c3ccnc(Nc4cccc(OC(F)(F)F)c4)n3)cnn2n1 [GW810372X]
Result: 100

Q: Cool, now "CCn1c(-c2nonc2N)nc2c(C#CC(C)(C)O)nc(OCCNC)cc21.Cl"
Result: 100

Q: Same question for CN1CCN(C(=O)c2ccc(NC(=O)Nc3ccc(N(C)c4ccnc(Nc5ccc(CS(C)(=O)=O)cc5)n4)cc3)cc2)CC1.Cl [GW830263A] please.
Result: 64

Q: Next up: COc1cccc(-c2c[nH]c3c(N/N=C/c4ccncc4)ncnc23)c1 [GW814408X]
Result: 100

Q: Now try CCS(=O)(=O)c1ccc(OC)c(Nc2ncc(-c3cccc(OC)c3)o2)c1 [GW580509X] .
Result: 100

====

- System: TIE1
- EXPERIMENTAL_CONDITIONS: Compound Concentration (nM):1000
VALUE_KIND: Percent Control (%)
The reply should contain only the number, in %.

Q: Recorded Percent Control for Cl.O=C(O[C@H]1CN[C@H](C#Cc2cc3ncnc(Nc4ccc5c(cnn5Cc5ccccc5)c4)c3s2)C1)N1CCOCC1 [GSK200398A] with TIE1, please?
Result: 100

Q: Entry CC(C)COC(=O)c1ccc2c(c1)/C(=C/Nc1ccc(S(N)(=O)=O)cc1)C(=O)N2 [GW416981X] please
Result: 100

Q: Further, for COC(=O)Nc1nc2ccc(Oc3ccc(NC(=O)Nc4cc(C(F)(F)F)ccc4F)cc3)cc2s1.Cl [GW693917A] ?
Result: 3.1

Q: What do we get for COc1ccc2c(-c3ccnc(Nc4cccc(OC(F)(F)F)c4)n3)cnn2n1 [GW810372X] ?
Result: 100

Q: And the next one, COc1ccc(COc2ccc(Cc3cnc(N)nc3N)cc2OC)cc1 [GW632580X] ?
Result: 100

Q: Same read-out for Cl.c1ccc(Cc2nc3ccc(Nc4ncnc5ccccc45)cc3[nH]2)cc1 [GR269666A] ?
Result: 100

Q: Would you kindly repeat that for COc1cc(C=NNc2ncnc3c2cnn3-c2ccccc2)ccc1O [GW513184X] ?
Result: 74

Q: Repeat with NS(=O)(=O)c1ccc(Nc2ncc(-c3ccccc3)o2)cc1 [GW572399X]
Result: 100

Q: And what about the compound "CCn1c(-c2nonc2N)nc2c(C#CC(C)(C)O)nc(OCCNC)cc21.Cl" ?
Result: 100

====

- Test system: KIT(V559D)
- EXPERIMENTAL_CONDITIONS: Compound Concentration (nM):1000
VALUE_KIND: Percent Control
Please report the result as a number followed by the unit.

Q: Need Percent Control of COc1cccc(-n2ncc3c(N/N=C/c4ccncc4)ncnc32)c1 [GW784752X] , thanks.
Result: 89%

Q: One more molecule: COc1cc2ncn(-c3cc(O[C@H](C)c4ccccc4Cl)c(C(N)=O)s3)c2cc1OC [GSK237701A]
Result: 33%

Q: Thanks! And CCc1ccc(Oc2nccc(-c3c(-c4ccc(F)cc4)ncn3C3CCNCC3)n2)cc1 [SB-242719] ?
Result: 95%

Q: Would you kindly repeat that for COc1cc(C)c(N(C)C(=O)CN(C)C)cc1Nc1nc(Nc2cccc(F)c2C(N)=O)c2cc[nH]c2n1 [GSK2219385] ?
Result: 100%

====

- Tested on: RSK2(Kin.Dom.2-C-terminal)
- Construct: gene RPS6KA3
- EXPERIMENTAL_CONDITIONS: Compound Concentration (nM):1000
What Percent Control was measured for each of the following?
Hi! Could you send only the number? It should be in %, unit omitted.

Q: Find the recorded Percent Control belonging to COc1ccc2c(-c3ccnc(Nc4cccc(OC(F)(F)F)c4)n3)cnn2n1 [GW810372X] and report it.
Result: 90

Q: Entry to check: COc1ccc(COc2ccc(Cc3cnc(N)nc3N)cc2OC)cc1 [GW632580X]
Result: 100

Q: Now this one: Cl.c1ccc(Cc2nc3ccc(Nc4ncnc5ccccc45)cc3[nH]2)cc1 [GR269666A]
Result: 97

Q: Could you do the same for COc1ccccc1-c1cc(/C=C2\C(=O)Nc3ncc(Br)cc32)cc(Br)c1O [GW442130X] , please?
Result: 79

Q: Again, but for "CCc1ccc(Oc2nccc(-c3c(-c4ccc(F)cc4)ncn3C3CCNCC3)n2)cc1"
Result: 94

Q: Entry NS(=O)(=O)c1ccc(Nc2ncc(-c3ccccc3)o2)cc1 [GW572399X] please
Result: 98

Q: Next record, please: Cl.O=C(Nc1ccc(Oc2ccc3[nH]c(NC(=O)c4ccccc4)nc3c2)cc1)Nc1cc(C(F)(F)F)ccc1F [GW709042A]
Result: 90

Q: Another compound to check: COc1cccc(-n2ncc3c(N/N=C/c4ccncc4)ncnc32)c1 [GW784752X]
Result: 86

Q: And what about the compound Nc1ncnc2occ(-c3ccc(NC(=O)Nc4cc(C(F)(F)F)ccc4F)cc3)c12 [GW770249X] ?
Result: 98

Q: Also COc1cc2ncn(-c3cc(O[C@H](C)c4ccccc4Cl)c(C(N)=O)s3)c2cc1OC [GSK237701A] , if possible.
Result: 77

Q: Note, next up: "COc1ccc2cc(-c3c(-c4ccncc4)nc(-c4ccc(S(C)(=O)=O)cc4C)n3C)ccc2c1"
Result: 70

Q: Same read-out for CCS(=O)(=O)c1ccc(OC)c(Nc2ncc(-c3cccc(OC)c3)o2)c1 [GW580509X] ?
Result: 100

Q: Same for COc1cc(C=NNc2ncnc3c2cnn3-c2ccccc2)ccc1O [GW513184X]
Result: 71

Q: Okay, and NS(=O)(=O)c1ccc(N/N=C2\C(=O)Nc3ccc(Cl)cc32)cc1 [GW280670X] ?
Result: 83

Q: Another compound to check: C/C(Nc1ccc(S(N)(=O)=O)cc1)=C1/C(=O)Nc2ccccc21 [GW335962X]
Result: 89

Q: Would you kindly repeat that for COc1ccc2[nH]c3c4[nH]c5ccc(OC)cc5c4c4c(c3c2c1)C(=O)NC4=O [GW296115X] ?
Result: 95

Q: Next compound: NS(=O)(=O)c1ccc(N/N=C2\C(=O)Nc3ccc(C(=O)NCCc4c[nH]cn4)cc32)cc1 [GW300660X]
Result: 100

Q: Also CC1=C(C(=O)Nc2ccc3[nH]ncc3c2)C(c2ccc(Cl)c(Cl)c2)CC(=O)N1 (stereo not drawn) [GSK299115A] , if possible.
Result: 89
